Data credit: PubChem BioAssay AID1963873

System: 276233-004-R-J1-PDC KRAS spheroids with HUVEC/MSC, viability
experiment: Anticancer human tumor 276233-004-R-J1-PDC patient-derived colon adenocarcinoma cell line growth inhibition [KRAS2]
measurement_setup: curve of first compound; second compound 10 µM
The entries below come with measured IC50 values attached.

Check out these entries, answers already filled in.
compound: CC(=O)Nc1cccc(-n2c(=O)n(C3CC3)c(=O)c3c(Nc4ccc(I)cc4F)n(C)c(=O)c(C)c32)c1 + CNCc1ccccc1-c1csc(C(C)Nc2nc(C)nc3cc(OC)c(OC)cc23)c1
test_target: 276233-004-R-J1-PDC KRAS spheroids with HUVEC/MSC, viability
IC50: < 0.1 nM
--
compound: COc1cc2nccc(Oc3ccc(NC(=O)C4(C(=O)Nc5ccc(F)cc5)CC4)cc3)c2cc1OC + CC1OCC2(CCN(c3cnc(Sc4ccnc(N)c4Cl)c(N)n3)CC2)C1N
test_target: 276233-004-R-J1-PDC KRAS spheroids with HUVEC/MSC, viability
IC50: 3580 nM

Asked: Fill in the blank: the reported IC50 of CC(=O)Nc1cccc(-n2c(=O)n(C3CC3)c(=O)c3c(Nc4ccc(I)cc4F)n(C)c(=O)c(C)c32)c1 + COc1cc2nc(C)nc(NC(C)c3cc(N)cc(C(F)(F)F)c3)c2cc1OC1CCOC1 is ____.
Given back: < 0.1 nM

Asked: Fill in the blank: the reported IC50 of CC(C)NCC(C(=O)N1CCN(c2ncnc3c2C(C)CC3O)CC1)c1ccc(Cl)cc1 (stereo unspecified) + CC1OCC2(CCN(c3cnc(Sc4ccnc(N)c4Cl)c(N)n3)CC2)C1N is ____.
Given back: 183 nM

Asked: Fill in the blank: the reported IC50 of CC(=O)Nc1cccc(-n2c(=O)n(C3CC3)c(=O)c3c(Nc4ccc(I)cc4F)n(C)c(=O)c(C)c32)c1 + CC1OCC2(CCN(c3cnc(Sc4ccnc(N)c4Cl)c(N)n3)CC2)C1N is ____.
Given back: < 0.1 nM

Asked: Fill in the blank: the reported IC50 of CN(C)C/C=C/C(=O)Nc1cc2c(Nc3ccc(F)c(Cl)c3)ncnc2cc1O[C@H]1CCOC1 + CC1OCC2(CCN(c3cnc(Sc4ccnc(N)c4Cl)c(N)n3)CC2)C1N is ____.
Given back: > 100 nM

----------
Tested on: 276233-004-R-J1-PDC KRAS spheroids with HUVEC/MSC, viability
experiment: Anticancer human tumor 276233-004-R-J1-PDC cell line growth inhibition [KRAS2];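 note: cells exposed to agents for seven days before viability read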;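 for viability, T/C: 100% = DMSO vehicle control wells and lower values mean fewer viable cells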
measurement_setup: second compound 3.16 µM; first compound 0.000316 µM; stronger effect = lower value
The entries below come with measured viability, T/C values attached.
Use % as the unit, but write only the number.

Check out these entries, answers already filled in.
compound: CN(C)C/C=C/C(=O)Nc1cc2c(Nc3ccc(F)c(Cl)c3)ncnc2cc1O[C@H]1CCOC1 + CNCc1ccccc1-c1csc(C(C)Nc2nc(C)nc3cc(OC)c(OC)cc23)c1
display_unit: %
recorded_value: 4.26
--
compound: Cn1ncnc1[C@H]1c2n[nH]c(=O)c3cc(F)cc(c23)N[C@@H]1c1ccc(F)cc1 + COc1cc2nc(C)nc(NC(C)c3cc(N)cc(C(F)(F)F)c3)c2cc1OC1CCOC1
display_unit: %
recorded_value: 85.3
--
compound: CN(C)C/C=C/C(=O)Nc1cc2c(Nc3ccc(F)c(Cl)c3)ncnc2cc1O[C@H]1CCOC1 + CC1OCC2(CCN(c3cnc(Sc4ccnc(N)c4Cl)c(N)n3)CC2)C1N
display_unit: %
recorded_value: 56.4
--
compound: CC(C)n1nc(-c2ccc3oc(N)nc3c2)c2c(N)ncnc21 + COc1cc2nc(C)nc(NC(C)c3cc(N)cc(C(F)(F)F)c3)c2cc1OC1CCOC1
display_unit: %
recorded_value: 76.7
--
compound: CN(C)C/C=C/C(=O)Nc1cc2c(Nc3ccc(F)c(Cl)c3)ncnc2cc1O[C@H]1CCOC1 + C=CC(=O)N1CCN(c2nc(OCC3CCCN3C)nc3c2CCN(c2cccc4cccc(C)c24)C3)CC1CC#N
display_unit: %
recorded_value: 67.5

Asked: Fill in the blank: the reported viability, T/C of CC(C)n1nc(-c2ccc3oc(N)nc3c2)c2c(N)ncnc21 + C=CC(=O)N1CCN(c2nc(=O)n(-c3c(C)ccnc3C(C)C)c3nc(-c4c(O)cccc4F)c(F)cc23)C(C)C1 is ____.
Given back: 87

----------
The entries below come with measured viability, T/C values attached.
Tested on: 276233-004-R-J1-PDC KRAS spheroids with HUVEC/MSC, viability
experiment: Anticancer human tumor 276233-004-R-J1-PDC cell line growth inhibition [KRAS2];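 note: cells exposed to agents for seven days before viability read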;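 for viability, T/C: 100% = DMSO vehicle control wells and lower values mean fewer viable cells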
measurement_setup: second compound 0.316 µM; first compound 0.1 µM; stronger effect = lower value
Use % as the unit, but write only the number.

Check out these entries, answers already filled in.
compound: CC(=O)OC12COC1CC(O)C1(C)C(=O)C(O)C3=C(C)C(OC(=O)C(O)C(NC(=O)OC(C)(C)C)c4ccccc4)CC(O)(C(OC(=O)c4ccccc4)C21)C3(C)C (configuration not stated) + C=CC(=O)N1CCN(c2nc(OCC3CCCN3C)nc3c2CCN(c2cccc4cccc(C)c24)C3)CC1CC#N
recorded_value: 73.6
--
compound: CC(=O)OC12COC1CC(O)C1(C)C(=O)C(O)C3=C(C)C(OC(=O)C(O)C(NC(=O)OC(C)(C)C)c4ccccc4)CC(O)(C(OC(=O)c4ccccc4)C21)C3(C)C (configuration not stated) + CC1OCC2(CCN(c3cnc(Sc4ccnc(N)c4Cl)c(N)n3)CC2)C1N
recorded_value: 65.5
--
compound: Cn1ncnc1[C@H]1c2n[nH]c(=O)c3cc(F)cc(c23)N[C@@H]1c1ccc(F)cc1 + COc1cc2nc(C)nc(NC(C)c3cc(N)cc(C(F)(F)F)c3)c2cc1OC1CCOC1
recorded_value: 83.2
--
compound: CN(C)C/C=C/C(=O)Nc1cc2c(Nc3ccc(F)c(Cl)c3)ncnc2cc1O[C@H]1CCOC1 + C=CC(=O)N1CCN(c2nc(OCC3CCCN3C)nc3c2CCN(c2cccc4cccc(C)c24)C3)CC1CC#N
recorded_value: 72.2
--
compound: CCN1CCN(Cc2ccc(Nc3ncc(F)c(-c4cc(F)c5nc(C)n(C(C)C)c5c4)n3)nc2)CC1 + CNCc1ccccc1-c1csc(C(C)Nc2nc(C)nc3cc(OC)c(OC)cc23)c1
recorded_value: 107

Asked: Fill in the blank: the reported viability, T/C of CC(C)NCC(C(=O)N1CCN(c2ncnc3c2C(C)CC3O)CC1)c1ccc(Cl)cc1 (configuration not stated) + C=CC(=O)N1CCN(c2nc(OCC3CCCN3C)nc3c2CCN(c2cccc4cccc(C)c24)C3)CC1CC#N is ____.
Given back: 81.4

Asked: Fill in the blank: the reported viability, T/C of CC1COCCN1c1cc(-c2ccnn2C)c2ccnc(-c3ccn[nH]3)c2n1 (configuration not stated) + C=CC(=O)N1CCN(c2nc(OCC3CCCN3C)nc3c2CCN(c2cccc4cccc(C)c24)C3)CC1CC#N is ____.
Given back: 91.5

----------
System: 276233-004-R-J1-PDC KRAS spheroids with HUVEC/MSC, viability
experiment: Anticancer human tumor 276233-004-R-J1-PDC cell line growth inhibition [KRAS2];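 note: cells exposed to agents for seven days before viability read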
measurement_setup: curve of first compound; second compound 3.16 µM
pIC50: −log10 of the molar value.
property_label: pIC50

Asked: Fill in the blank: the reported pIC50 of Cn1ncnc1[C@H]1c2n[nH]c(=O)c3cc(F)cc(c23)N[C@@H]1c1ccc(F)cc1 + COc1cc2nc(C)nc(NC(C)c3cc(N)cc(C(F)(F)F)c3)c2cc1OC1CCOC1 is ____.
Given back: < 7.00

Asked: Fill in the blank: the reported pIC50 of Cn1nccc1Nc1nccc(-c2cc3c(s2)C(C)(C)N(CCN2CCOCC2)C3=O)n1 + CC1OCC2(CCN(c3cnc(Sc4ccnc(N)c4Cl)c(N)n3)CC2)C1N is ____.
Given back: 6.49

Asked: Fill in the blank: the reported pIC50 of CC1OCC2(CCN(c3cnc(Sc4ccnc(N)c4Cl)c(N)n3)CC2)C1N (stereo not drawn) + CNCc1ccccc1-c1csc(C(C)Nc2nc(C)nc3cc(OC)c(OC)cc23)c1 is ____.
Given back: > 7.50

----------
The entries below come with measured pIC50 values attached.
Test system: 276233-004-R-J1-PDC KRAS spheroids with HUVEC/MSC, viability
experiment: Anticancer human tumor 276233-004-R-J1-PDC cell line growth inhibition [KRAS2];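 note: cells exposed to agents for seven days before viability read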
measurement_setup: curve of first compound; second compound 0.0316 µM
pIC50: −log10 of the molar value.

Check out these entries, answers already filled in.
compound: CC(=O)OC12COC1CC(O)C1(C)C(=O)C(O)C3=C(C)C(OC(=O)C(O)C(NC(=O)OC(C)(C)C)c4ccccc4)CC(O)(C(OC(=O)c4ccccc4)C21)C3(C)C (stereo unspecified) + C=CC(=O)N1CCN(c2nc(OCC3CCCN3C)nc3c2CCN(c2cccc4cccc(C)c24)C3)CC1CC#N
recorded_value: < 5.50

compound: CC1OCC2(CCN(c3cnc(Sc4ccnc(N)c4Cl)c(N)n3)CC2)C1N (stereo unspecified) + C=CC(=O)N1CCN(c2nc(OCC3CCCN3C)nc3c2CCN(c2cccc4cccc(C)c24)C3)CC1CC#N
recorded_value: < 5.00

compound: CCNC(=O)CC1N=C(c2ccc(Cl)cc2)c2cc(OC)ccc2-n2c(C)nnc21 (stereo unspecified) + C=CC(=O)N1CCN(c2nc(OCC3CCCN3C)nc3c2CCN(c2cccc4cccc(C)c24)C3)CC1CC#N
recorded_value: < 5.00

compound: O=C(c1cc(Cc2n[nH]c(=O)c3ccccc23)ccc1F)N1CCN(C(=O)C2CC2)CC1 + C=CC(=O)N1CCN(c2nc(OCC3CCCN3C)nc3c2CCN(c2cccc4cccc(C)c24)C3)CC1CC#N
recorded_value: < 5.00

compound: Cn1ncnc1[C@H]1c2n[nH]c(=O)c3cc(F)cc(c23)N[C@@H]1c1ccc(F)cc1 + C=CC(=O)N1CCN(c2nc(OCC3CCCN3C)nc3c2CCN(c2cccc4cccc(C)c24)C3)CC1CC#N
recorded_value: < 7.00

In the following, a different compound is considered.
Asked: Fill in the blank: the reported pIC50 of CC(=O)Nc1cccc(-n2c(=O)n(C3CC3)c(=O)c3c(Nc4ccc(I)cc4F)n(C)c(=O)c(C)c32)c1 + C=CC(=O)N1CCN(c2nc(OCC3CCCN3C)nc3c2CCN(c2cccc4cccc(C)c24)C3)CC1CC#N is ____.
Given back: 8.12
